The reported numbers originate from patent US8871728B2.

target: HDAC6 (Homo sapiens (Human), UniProt Q9UBN7); assay: Fluor de Lys HDAC6 inhibition; type: biochemical; details: Table 5; read-out: HDAC 6
Sequence (Q9UBN7 whole entry): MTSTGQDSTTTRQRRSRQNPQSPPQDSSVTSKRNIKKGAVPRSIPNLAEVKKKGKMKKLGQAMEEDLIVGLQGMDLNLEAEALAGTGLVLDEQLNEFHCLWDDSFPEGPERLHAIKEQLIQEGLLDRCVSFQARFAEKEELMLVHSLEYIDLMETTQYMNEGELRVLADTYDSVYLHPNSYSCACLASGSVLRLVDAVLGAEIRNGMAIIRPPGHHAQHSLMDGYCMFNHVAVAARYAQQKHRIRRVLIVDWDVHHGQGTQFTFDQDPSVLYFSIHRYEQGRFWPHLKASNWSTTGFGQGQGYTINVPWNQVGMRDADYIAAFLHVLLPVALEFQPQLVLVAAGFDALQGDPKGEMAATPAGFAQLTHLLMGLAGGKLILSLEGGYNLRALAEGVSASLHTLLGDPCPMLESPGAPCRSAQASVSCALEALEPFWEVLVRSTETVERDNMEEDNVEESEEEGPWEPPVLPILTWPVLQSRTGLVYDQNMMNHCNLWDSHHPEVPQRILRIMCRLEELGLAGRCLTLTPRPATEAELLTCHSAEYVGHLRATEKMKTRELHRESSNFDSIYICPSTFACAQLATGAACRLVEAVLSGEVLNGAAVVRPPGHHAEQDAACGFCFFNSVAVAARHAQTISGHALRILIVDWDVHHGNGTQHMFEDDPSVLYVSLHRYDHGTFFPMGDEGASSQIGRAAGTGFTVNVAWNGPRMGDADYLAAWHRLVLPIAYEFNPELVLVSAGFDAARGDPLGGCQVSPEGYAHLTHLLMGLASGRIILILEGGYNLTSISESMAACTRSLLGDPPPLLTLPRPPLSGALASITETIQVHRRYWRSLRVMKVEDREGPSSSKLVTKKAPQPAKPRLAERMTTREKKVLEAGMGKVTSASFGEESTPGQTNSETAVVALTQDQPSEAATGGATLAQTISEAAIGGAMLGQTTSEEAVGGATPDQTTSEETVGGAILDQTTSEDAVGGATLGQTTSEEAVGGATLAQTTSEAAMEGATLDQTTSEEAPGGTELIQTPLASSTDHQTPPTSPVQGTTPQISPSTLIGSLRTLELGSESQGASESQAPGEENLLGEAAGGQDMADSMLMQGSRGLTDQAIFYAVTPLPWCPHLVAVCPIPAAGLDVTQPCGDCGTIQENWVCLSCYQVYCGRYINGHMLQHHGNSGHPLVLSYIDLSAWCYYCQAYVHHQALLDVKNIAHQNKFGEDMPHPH
Each record here notes measured IC50.
PARAMETER: IC50 (µM)

[[record]]
compound = "CCC1OC(=O)C(C)C(=O)C(C)C(OC2OC(C)CC(N(C)Cc3ccc(-c4cn(CCCCCCCC(=O)NO)nn4)cc3)C2O)C(C)(OC)CC(C)C2=NCCN3C(=O)OC1(C)C3C2C (centres unmarked) [Compound 56c]"
parameter = "IC50"
value_units = "µM"
value_reported = 1.71

[[record]]
compound = "CCC1OC(=O)C(C)C(=O)C(C)C(OC2OC(C)CC(N(C)Cc3ccc(-c4cn(CCCCCCCCCC(=O)NO)nn4)cc3)C2O)C(C)(OC)CC(C)C2=NCCN3C(=O)OC1(C)C3C2C (centres unmarked) [Compound 56e]"
parameter = "IC50"
value_units = "µM"
value_reported = 3.2

[[record]]
compound = "CCC1OC(=O)C(C)C(=O)C(C)C(OC2OC(C)CC(N(C)Cc3ccc(-c4cn(CCCCCCC(=O)NO)nn4)cc3)C2O)C(C)(OC)CC(C)C2=NCCN3C(=O)OC1(C)C3C2C (centres unmarked) [Compound 56b]"
parameter = "IC50"
value_units = "µM"
value_reported = 0.729

[[record]]
compound = "CCC1OC(=O)C(C)C(=O)C(C)C(OC2OC(C)CC(N(C)Cc3ccc(-c4cn(CCCCCCCCC(=O)NO)nn4)cc3)C2O)C(C)(OC)CC(C)C2=NCCN3C(=O)OC1(C)C3C2C (centres unmarked) [Compound 56d]"
parameter = "IC50"
value_units = "µM"
value_reported = 1.92

[[record]]
compound = "CCC1OC(=O)C(C)C(=O)C(C)C(OC2OC(C)CC(N(C)Cc3ccc(-c4cn(CCCCCC(=O)NO)nn4)cc3)C2O)C(C)(OC)CC(C)C2=NCCN3C(=O)OC1(C)C3C2C (centres unmarked) [Compound 56a]"
parameter = "IC50"
value_units = "µM"
value_reported = 1.18

